meta.source: patent US20180141988A1

# target: T1, murine GPC3 (6938-GP; R&D systems), biotinylated (murine, UniProt Q8CFZ4 25-558, limits assumed, biotinylated using standard NHS chemistry)
# T1 construct: Bought protein; also called mouse GPC3
# T1 sequence (Q8CFZ4 25-558 limits assumed): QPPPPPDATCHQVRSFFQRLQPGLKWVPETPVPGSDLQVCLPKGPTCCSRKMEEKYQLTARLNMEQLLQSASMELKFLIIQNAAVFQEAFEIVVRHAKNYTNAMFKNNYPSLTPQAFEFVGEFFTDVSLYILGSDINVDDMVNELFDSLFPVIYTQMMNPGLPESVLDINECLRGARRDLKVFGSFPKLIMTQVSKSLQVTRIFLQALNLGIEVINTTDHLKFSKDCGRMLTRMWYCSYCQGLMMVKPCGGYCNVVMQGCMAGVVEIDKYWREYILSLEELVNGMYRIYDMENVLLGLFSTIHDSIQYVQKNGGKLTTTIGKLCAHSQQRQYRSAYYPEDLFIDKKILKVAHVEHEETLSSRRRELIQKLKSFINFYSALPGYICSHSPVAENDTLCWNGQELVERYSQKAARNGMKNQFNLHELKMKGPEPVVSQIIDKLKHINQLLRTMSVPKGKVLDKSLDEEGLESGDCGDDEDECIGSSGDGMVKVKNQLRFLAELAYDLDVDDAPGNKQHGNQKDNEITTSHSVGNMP
# experiment description: SPR (Biacore T200), biotinylated GPC3 captured on chip, mutein in flow
readout type: log10 of koff (log10 of the value in s⁻¹)

1. lipocalin mutein of SEQ ID NO: 16 (designed binder, hNGAL (Lcn2) mutein; also called optimized GPC3 specific lipocalin mutein) QDSTSDLIPAPPLSKVPLQQNFQDNQFQGKWYVVGRAGNVGLREDKDPPKMRATIYELKEDKSYDVTGVRFDSKKVTYSIGTFVPGSQPGEFTLGQIKSEPGNTANLVRVVSTNYNQHAMVFFKEVYQNREIFFIILYGRTKELTSELKENFIRFSKSLGLPENHIVFPVPIDQAIDGSAWSHPQFEK :: -3.72
2. lipocalin mutein of SEQ ID NO: 13 (designed binder, hNGAL (Lcn2) mutein; also called optimized GPC3 specific lipocalin mutein) QDSTSDLIPAPPLSKVPLQQNFQDNQFQGKWYVVGRAGNLGLREDKDPPKMWATIYELKEDKSYDVTNVRFARKKCMYSIGTFVPGSQPGEFTLGQIKSEPGSTANLVRVVSTNYNQHAMVFFKEVYQNREIFFITLYGRTKELTSELKENFIRFSKSLGLPENHIVFPVPIDQCIDGSAWSHPQFEK :: -3.62
3. lipocalin mutein of SEQ ID NO: 4 (designed binder, hNGAL (Lcn2) mutein; also called non-optimized GPC3-specific Lcn2 mutein; mother clone) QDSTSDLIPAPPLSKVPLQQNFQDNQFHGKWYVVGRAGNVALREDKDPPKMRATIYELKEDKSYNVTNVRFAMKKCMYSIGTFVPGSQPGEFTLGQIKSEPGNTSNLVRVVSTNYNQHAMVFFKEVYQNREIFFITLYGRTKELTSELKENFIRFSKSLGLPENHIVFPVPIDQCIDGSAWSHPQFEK :: -2.55
4. lipocalin mutein of SEQ ID NO: 14 (designed binder, hNGAL (Lcn2) mutein; also called optimized GPC3 specific lipocalin mutein) QDSTSDLIPAPPLSKVPLQQNFQDNQFQGKWYVVGRAGNVGLREDKDPPKMWATIYELKEDKSYDVTNVRFAGKKVKYTIGTFVPGSQPGEFTLGQIKSEPGNTATLVRVVSTNYNQHAMVFFKEVYQNREIFFITLYGRTKELTSELKENFIRFSKSLGLPENHIVFPVPIDQAIDGSAWSHPQFEK :: -2.51
5. lipocalin mutein of SEQ ID NO: 9 (designed binder, hNGAL (Lcn2) mutein; also called optimized GPC3 specific lipocalin mutein) QDSTSDLIPAPPLSKVPLQQNFQDNQFQGKWYVVGRAGNVGLREDKDPPKMWATIYELKEDKSYDVTNVRFARKKCTYSIGTFVPGSQPGEFTLGQIKSEPGGTANLVRVVSTNYNQHAMVFFKEVYQNREIFFIILYGRTKELTSELKENFIRFSKSLGLPENHIVFPVPIDQCIDGSAWSHPQFEK :: -3.82
